- system: T1, human GFRα3 expressed with a C-terminal myc-myc-hexahistidine tag (human, UniProt O60609 32-374, biotinylated (sites not given) in ELISA format 2 and in the Octet cross-competition; not in SPR)
- T1 construct: also called hGFRα3-mmh; hGFRα3-mmH
- T1 sequence (O60609 other isoform, or with tags, fused parts or gaps limits assumed): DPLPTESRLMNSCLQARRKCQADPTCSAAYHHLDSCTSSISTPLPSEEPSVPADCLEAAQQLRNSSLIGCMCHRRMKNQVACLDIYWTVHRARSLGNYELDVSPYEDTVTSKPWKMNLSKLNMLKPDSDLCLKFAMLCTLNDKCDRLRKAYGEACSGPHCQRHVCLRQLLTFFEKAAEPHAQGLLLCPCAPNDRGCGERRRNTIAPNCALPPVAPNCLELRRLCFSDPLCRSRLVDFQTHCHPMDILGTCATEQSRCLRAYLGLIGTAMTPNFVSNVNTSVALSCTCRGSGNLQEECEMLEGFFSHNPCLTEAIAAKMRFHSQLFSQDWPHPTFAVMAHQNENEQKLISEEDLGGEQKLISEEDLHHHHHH
- assay-explanation: Octet cross-competition; biotin-hGFRα3-mmH pre-saturated with first antibody H4H2292S
property-name: binding response of second antibody (nm)
Give the number; nm is assumed, so skip it.

Q: Please give the measured binding response of second antibody (nm) for this binder: H4H2236N3 (antibody, human IgG4, V domains shown, human IgG4 Fc (H4H)) VH: EVQLLESGGNLVQPGGSLRLSCAASGFTFSSYAMTWVRQAPGKGLEWVSTISGSGTSTYYADSVKGRFTISRDNSRDTVFLQMNSLRAEDTAVYYCSKPSALRFLHWLAMDVWGQGTLVTVSS VL: DIQMTQSPSSLSAFVGDRVTITCRASQDIRNYLDWFQQKPGKAPKSLIYAASNLQSGVPSRFGGSGSGTDFTLTINSLQPEDFVTYYCQQYNSYPPTFGGGTKVEIK
A: 2.24

Q: Please give the measured binding response of second antibody (nm) for this binder: H4H2292S (antibody, human IgG4, V domains shown, human IgG4 Fc (H4H)) VH: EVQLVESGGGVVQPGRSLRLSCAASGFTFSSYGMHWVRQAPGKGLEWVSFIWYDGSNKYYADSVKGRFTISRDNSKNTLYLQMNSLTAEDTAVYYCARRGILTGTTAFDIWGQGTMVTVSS VL: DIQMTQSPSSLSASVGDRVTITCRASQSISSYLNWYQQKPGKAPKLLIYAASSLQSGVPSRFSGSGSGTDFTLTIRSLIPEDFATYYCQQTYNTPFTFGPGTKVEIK
A: 0.11
